molecular target: Nuclear receptor ROR-gamma (Mus musculus); test: qHTS for inhibitors of ROR gamma transcriptional activity; conditions: Drosophila S2 Gal4-RORgamma UAS-luciferase reporter, 20 h; series mostly up to 53.6 µM; note: nearly all actives have a fitted effect of over 60% in size; note: potency is the fitted concentration of half-maximal effect
In all, about 310,000 compounds went through this assay and about 17,000 (5.5%) were called active. Inconclusive results (about 11%) are left out. Many of the other results were omitted from the sample, so actives are more common in it than they were.
ENDPOINT LABEL: Potency

Past entries and their recorded results:
COMPOUND	MEASUREMENT
O=C(c1ccc(F)cc1)N1CCCC(C(=O)N2CCCCC2)C1 (stereo unspecified)	inactive
COC(=O)C1(O)CC(C(C)C)=NN1C(=O)c1ccc(Cl)cc1 (stereo unspecified)	10 µM (active)
CCCCN1CCNC1=S	12.6 µM (active)
O=C(N[C@@H](Cc1ccccc1)C(=O)OCc1ccccc1)c1nc[nH]c1C(=O)N[C@@H](Cc1ccccc1)C(=O)OCc1ccccc1	10 µM (active)
C[C@H](NC(=O)c1nc[nH]c1C(=O)NCC(=O)OC(C)(C)C)C(=O)OCc1ccccc1	11.2 µM (active)
O=C(NCCCn1ccnc1)C1CCCN(S(=O)(=O)c2cc(Cl)ccc2Cl)C1 (stereo unspecified)	inactive

Let's switch to this compound now.
// query Report Potency for O=C(NCCNc1ccccc1[N+](=O)[O-])c1ccccc1F
// result inactive

* * *

target: Nuclear receptor ROR-gamma (Mus musculus); experiment: qHTS for inhibitors of ROR gamma transcriptional activity; settings: Drosophila S2 Gal4-RORgamma UAS-luciferase reporter, 20 h; series mostly up to 53.6 µM; note: nearly all actives have a fitted effect of over 60% in size
In all, about 310,000 compounds went through this assay and about 17,000 (5.5%) were called active. Another 11% or so got no clear call; they are omitted. The call rests on the fitted dose curve; in most records, active means well fitted inhibition curve with a large enough effect; inconclusive means small, poorly fitted or top-dose-only effect, or effect the other way; inactive means no such curve, though single readings can be large or run the other way. The entries come from a sample that favours actives as a whole.
Reply using exactly one outcome from active, inactive

Completed entries (count: 5):
COMPOUND	GROUP
O=C(O)c1ccc(S(=O)(=O)N2CCC(Cc3ccccc3)CC2)cc1	inactive
COc1ccc(-c2nn(-c3ccccc3)cc2/C=C\C(=O)Nc2ccc(C(=O)O)cc2)cc1	inactive
CC(C)CNC(=O)C(=O)NCC(c1ccc2c(c1)OCO2)N1CCOCC1 (stereo not drawn)	inactive
CCn1c(SCC(=O)NNC(=O)c2ccc(OC)cc2)nnc1C(C)C	inactive
O=C(C1CCCN(S(=O)(=O)c2ccc([N+](=O)[O-])cc2)C1)N1CCCCC1 (stereo not drawn)	inactive

# evaluate next
// query Field: outcome | Entry: COC(=O)c1oc2ccc(Br)cc2c1NC(C)=O
// result inactive

* * *

biological target: Nuclear receptor ROR-gamma (Mus musculus) (UniProt P51450); assay: qHTS for inhibitors of ROR gamma transcriptional activity; settings: Drosophila S2 Gal4-RORgamma UAS-luciferase reporter, 20 h; series mostly up to 53.6 µM; note: nearly all actives have a fitted effect of over 60% in size
Sequence (P51450 whole entry, looked up, the tested form may be a part): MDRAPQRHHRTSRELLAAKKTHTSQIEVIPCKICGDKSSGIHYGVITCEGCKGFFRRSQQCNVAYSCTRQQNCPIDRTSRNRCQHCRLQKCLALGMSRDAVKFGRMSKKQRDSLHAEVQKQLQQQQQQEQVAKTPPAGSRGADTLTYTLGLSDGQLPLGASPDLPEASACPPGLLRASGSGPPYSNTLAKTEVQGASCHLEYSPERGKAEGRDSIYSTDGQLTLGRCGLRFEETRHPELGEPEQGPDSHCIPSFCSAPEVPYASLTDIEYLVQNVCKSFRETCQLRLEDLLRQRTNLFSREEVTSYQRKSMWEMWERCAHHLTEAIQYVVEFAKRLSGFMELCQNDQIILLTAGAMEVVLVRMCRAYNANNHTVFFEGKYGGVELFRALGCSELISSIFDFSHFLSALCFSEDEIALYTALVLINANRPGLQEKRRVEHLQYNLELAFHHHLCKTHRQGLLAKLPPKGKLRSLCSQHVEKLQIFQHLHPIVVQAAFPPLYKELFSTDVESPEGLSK
Among all 310,000 compounds or so, about 17,000 (5.5%) were called active. Inconclusive results (about 11%) are left out. The call rests on the fitted dose curve; in most records, active means well fitted inhibition curve with a large enough effect; inconclusive means small, poorly fitted or top-dose-only effect, or effect the other way; inactive means no such curve, though single readings can be large or run the other way. Only a selection was taken, and actives are over-represented in it overall.
Choose one outcome from this list and give only that: active, inactive

COMPOUND	GROUP
c1ccc2sc(NN=C3CCCC3)nc2c1	active
CSCCC(Nc1nc2ccccc2s1)C(=O)O (stereo not given)	inactive
Cc1ccc(CN(CC(=O)NCC2CCCO2)S(=O)(=O)c2ccc(C)cc2)cc1 (stereo not given)	inactive
Cc1cc(C(=O)NCCc2ccc(Cl)cc2)c(C)o1	inactive
Cc1cccc(NC(=O)C2CCCN(C(=O)Nc3ccc(F)cc3)C2)c1C (stereo not given)	inactive
COC(=O)[C@@H]1CCCN1C(=O)c1cc(COc2cccc3cccnc23)on1	inactive
NS(=O)(=O)c1ccc(CCNC(=O)c2nc(CS(=O)(=O)c3ccc(Cl)cc3)no2)cc1	inactive
O=C(COC(=O)c1ccc(F)cc1)NCCCc1ccccc1	inactive

// query Answer briefly: the call reported for COc1ccc(CCNC(=O)CS(=O)(=O)Cc2nc(-c3ccc(C)cc3)oc2C)cc1OC in this assay.
// result inactive

// query Could you check what this test reported for Cc1cc(=O)cc(C)n1-c1ccc(Cl)c(Cl)c1 ?
// result inactive

// query Could you please tell me the result logged for Cc1cc(/C=N/NC(=O)CC2(C)OCCO2)c(C)n1-c1ccc(Cl)c(Cl)c1 in this assay?
// result active

// query Which result was noted for this compound in the test: O=C(CCCCCn1c(=S)[nH]c2ccsc2c1=O)NC1CCCCC1
// result active

// query Could you please tell me the result logged for Cc1ccc(NC(=O)c2ccn(C(=O)Nc3ccccc3)n2)c(C)c1 in this assay?
// result inactive
